System: SARS-CoV-2
Protocol Details: microbe, parasite or virus in culture
Type: cell-based
Experimental Context: Severe acute respiratory syndrome coronavirus 2, Vero C1008; read-out: SARS-COV-2 antiviral activity using immunofluorescence assay EC50
Below, each entry is listed alongside its reported pEC50.
Please treat pEC50 as minus the base-10 logarithm of the molar concentration.

>>> df
                                   molecule  value_measured
0  C[C@H](NC(=O)C(c1cccnc1)N(C(=O)c1ccco1)c1ccc(-c2ccccc2)cc1)c1ccccc1 (some centres unmarked) [Jun8-76-3]            5.74
1  C[C@H](NC(=O)C(c1cccnc1)N(C(=O)c1ccco1)c1ccc(-n2cccc2)cc1)c1ccccc1 (some centres unmarked)            5.72
2  C[C@H](NC(=O)C(c1cnccn1)N(C(=O)c1ccco1)c1ccc(-c2ccccc2)cc1)c1ccccc1 (some centres unmarked)            5.84
3  C[C@H](NC(=O)C(c1cccnc1)N(C(=O)c1ccco1)c1ccc(C(C)(C)C)cc1)c1ccccc1 (some centres unmarked)            4.76
4  C[C@H](NC(=O)C(c1cnccn1)N(C(=O)c1c[nH]cn1)c1ccc(-c2ccccc2)cc1)c1ccccc1 (some centres unmarked)            5.00

Q: For the record CC(C)(C)c1ccc(N(C(=O)c2ccco2)C(C(=O)NC2CCCC2)c2cccnc2)cc1 (centres unmarked) , what value of pEC50 is listed for SARS-CoV-2?
Ans: 4.89

Q: For the record O=C(NCCCc1ccccc1)C(c1cccnc1)N(C(=O)c1ccco1)c1ccc(-c2ccccc2)cc1 (centres unmarked) , what value of pEC50 is listed for SARS-CoV-2?
Ans: 5.67

Q: For the record C[C@H](NC(=O)C(c1cccnc1)N(C(=O)c1ccco1)c1ccc(-c2ccccc2)cc1)c1ccccc1 (single isomer, unassigned) [Jun8-76-3B] , what value of pEC50 is listed for SARS-CoV-2?
Ans: 5.53

###

Below, each entry is listed alongside its reported CC50 at 5 days.
Protocol Details: in vitro
Experimental Context: human, CC50 in Calu-3 cells

# annotated cases, reported CC50 at 5 days shown
In [3]: df
Out[3]:
                                   compound  value_measured
0  C[C@H](NC(=O)[C@H](c1cccnc1)N(C(=O)CCl)c1ccc(-n2cccc2)cc1)c1ccccc1 (stereo in doubt)          < 2 µM
1  C[C@H](NC(=O)C(c1cnccn1)N(C(=O)CCl)c1ccc(-c2ccccc2)cc1)c1ccccc1 (stereo partly shown)          < 2 µM
2  CC#CC(=O)N(c1ccc(-c2ccccc2)cc1)C(C(=O)N[C@@H](C)c1ccccc1)c1cccnc1 (stereo partly shown)         47.8 µM

Next compound, please.
Q: Any idea what CC50 at 5 days was measured for O=C(NC1CCCC1)C(c1cccnc1)N(C(=O)CCl)c1ccc(-c2ccccc2)cc1 (stereo not shown) ?
Ans: < 2 µM

###

Measurement Target: SARS-CoV-2 M^pro (Severe acute respiratory syndrome coronavirus 2 (2019-nCoV) (SARS-CoV-2), UniProt P0DTD1)
Protocol Details: cell-based
Result Type: pEC50
Please treat pEC50 as minus the base-10 logarithm of the molar concentration.

# annotated cases, reported pEC50 shown
In [3]: df
Out[3]:
                                   compound  result_type  value_measured
0  C[C@H](NC(=O)[C@@H](c1cccnc1)N(C(=O)C(Cl)Cl)c1ccc(-c2ccccc2)cc1)c1ccccc1        pEC50            6.02
1  C[C@H](NC(=O)[C@@H](c1cccnc1)N(C(=O)C(Br)(Br)Br)c1ccc(-c2ccccc2)cc1)c1ccccc1        pEC50            6.04
2  C[C@H](NC(=O)[C@@H](c1cccnc1)N(C(=O)C(Cl)Cl)c1ccc(-c2ccccc2)cc1)c1ccc(Br)cc1        pEC50            6.04

Next compound, please.
Q: Any idea what pEC50 was measured for C[C@@H](CCc1ccccc1)NC(=O)[C@@H](c1cccnc1)N(C(=O)C(Cl)Cl)c1ccc(-c2ccccc2)cc1 (single isomer, unassigned) ?
Ans: 5.80

###

Below, each entry is listed alongside its reported CC50.
Test system: Vero E6 cells
Protocol Details: Cytotoxicity in Vero E6 cells (neutral red uptake)
Experimental Context: read-out: CC50 in Vero E6 cells

>>> df
                                   molecule  measurement_target  value_measured
0  C[C@H](NC(=O)C(c1cccnc1)N(C(=O)c1ccno1)c1ccc(-c2ccccc2)cc1)c1ccccc1 (stereo partly drawn) [Compound 25]       Vero E6 cells        > 100 µM
1  CC(C)(C)NC(=O)C(c1cnccn1)N(C(=O)c1ccco1)c1ccc(C(C)(C)C)cc1 (stereo not drawn) [Compound 27]       Vero E6 cells        > 100 µM
2  O=C(NCCCc1ccccc1)C(c1cccnc1)N(C(=O)c1ccco1)c1ccc(-c2ccccc2)cc1 (stereo not drawn) [Jun9-12-2]       Vero E6 cells        > 100 µM
3  C[C@H](NC(=O)C(c1cccnc1)N(C(=O)c1c[nH]cn1)c1ccc(-c2ccccc2)cc1)c1ccccc1 (stereo partly drawn) [Jun8-90-3]       Vero E6 cells        > 100 µM
4  C[C@H](NC(=O)C(c1cnccn1)N(C(=O)c1c[nH]cn1)c1ccc(-c2ccccc2)cc1)c1ccccc1 (stereo partly drawn) [Jun9-5-2]       Vero E6 cells        > 100 µM
5  C[C@H](NC(=O)C(c1cccnc1)N(C(=O)c1ccco1)c1ccc(-c2ccccc2)cc1)c1ccccc1 (stereo partly drawn) [Jun8-76-3]       Vero E6 cells        > 100 µM
6  C[C@H](NC(=O)C(c1cccnc1)N(C(=O)c1ccco1)c1ccc(-n2cccc2)cc1)c1ccccc1 (stereo partly drawn) [Jun8-76-5]       Vero E6 cells        > 100 µM
7  O=C(NCC(c1ccccc1)c1ccccc1)C(c1cccnc1)N(C(=O)c1ccco1)c1ccc(-c2ccccc2)cc1 (stereo not drawn) [Compound 39]       Vero E6 cells        > 100 µM

Next molecule, please.
Q: Any idea what CC50 was measured for C[C@H](NC(=O)C(c1cnccn1)N(C(=O)c1ccco1)c1ccc(-c2ccccc2)cc1)c1ccccc1 (stereo partly drawn) [Jun9-4-4] ?
Ans: > 100 µM

###

Measurement Target: SARS-CoV M^pro (Severe acute respiratory syndrome coronavirus (SARS-CoV), UniProt P0C6X7)
Result Type: IC50 (µM)
The reply should be a number in µM, with the unit left off.

Q: For the record C[C@H](NC(=O)C(c1cccnc1)N(C(=O)c1ccco1)c1ccc(-c2ccccc2)cc1)c1ccccc1 (single isomer, unassigned) [Compound 23R] , what value of IC50 is listed for SARS-CoV M^pro (Severe acute respiratory syndrome coronavirus (SARS-CoV), UniProt P0C6X7)?
Ans: 0.27

###

System: SARS-CoV-2
Protocol Details: microbe, parasite or virus in culture
Format: cell-based
Experimental Context: Severe acute respiratory syndrome coronavirus 2, Vero C1008; read-out: antiviral EC50 against SARS-CoV-2 in Vero E6 cells
pEC50: −log10 of the molar value.
Result Type: pEC50

# annotated cases, reported pEC50 shown
In [3]: df
Out[3]:
                                   compound  value_measured
0  C[C@@H](CCc1ccccc1)NC(=O)[C@@H](c1cccnc1)N(C(=O)C(Cl)Cl)c1ccc(-c2ccccc2)cc1 (single isomer, unassigned)            5.96
1  C[C@H](NC(=O)C(c1cnccn1)N(C(=O)c1ccco1)c1ccc(-c2ccccc2)cc1)c1ccccc1 (stereo partly drawn)    5.34 to 6.09

Next compound, please.
Q: Any idea what pEC50 was measured for C[C@H](NC(=O)C(c1cccnc1)N(C(=O)c1c[nH]cn1)c1ccc(-c2ccccc2)cc1)c1ccccc1 (stereo partly drawn) ?
Ans: 5.34 to 6.09

###

Protocol Details: in vitro
Experimental Context: African green monkey, CC50 in Vero E6 cells
Rule for this label: true (1) means CC50 at 5 days is less than 8 µM; false (0) means CC50 at 5 days is at least 8 µM.

Solved entries:
>>> df
                                   compound  class_label
0  C[C@H](NC(=O)C(c1cccnc1)N(C(=O)C(Cl)(Cl)Br)c1ccc(-c2ccccc2)cc1)c1ccccc1 (stereo partly drawn) [Jun9-89-3]    false (0)
1  C[C@H](NC(=O)[C@@H](c1cccnc1)N(C(=O)C(Br)(Br)Br)c1ccc(-c2ccccc2)cc1)c1ccccc1 [Jun9-88-6R]     true (1)
2  CC#CC(=O)N(c1ccc(-c2ccccc2)cc1)C(C(=O)N[C@@H](C)c1ccccc1)c1cccnc1 (stereo partly drawn) [Jun9-62-1]    false (0)
3  C[C@H](NC(=O)[C@H](c1cccnc1)N(C(=O)C(Br)Br)c1ccc(-c2ccccc2)cc1)c1ccccc1 [Jun9-89-2S]     true (1)
4  C[C@H](NC(=O)[C@@H](c1cccnc1)N(C(=O)C(Cl)Cl)c1ccc(-c2ccccc2)cc1)c1ccc(Br)cc1 [Jun9-90-3R]    false (0)
5  C[C@H](NC(=O)[C@H](c1cccnc1)N(C(=O)C(Br)(Br)Br)c1ccc(-c2ccccc2)cc1)c1ccccc1 [Jun9-88-6S]     true (1)
6  C[C@@H](CCc1ccccc1)NC(=O)[C@@H](c1cccnc1)N(C(=O)C(Cl)Cl)c1ccc(-c2ccccc2)cc1 (single isomer, unassigned) [Jun9-90-4R]    false (0)
7  C[C@H](NC(=O)[C@@H](c1cccnc1)N(C(=O)C(Cl)(Br)Br)c1ccc(-c2ccccc2)cc1)c1ccccc1 [Jun9-89-4R]    false (0)

Note: attention shifts to another entry.
Q: Check if CC50 at 5 days falls below 8 µM for C[C@H](NC(=O)[C@@H](c1cccnc1)N(C(=O)C(Br)Br)c1ccc(-c2ccccc2)cc1)c1ccccc1 [Jun9-89-2R] .
Ans: false (0)
